measurementTarget: Perilipin-5 (Homo sapiens) + 1-acylglycerol-3-phosphate O-acyltransferase ABHD5 (Homo sapiens) (UniProt Q00G26+Q8WTS1)
Sequence (Q00G26 whole entry, looked up): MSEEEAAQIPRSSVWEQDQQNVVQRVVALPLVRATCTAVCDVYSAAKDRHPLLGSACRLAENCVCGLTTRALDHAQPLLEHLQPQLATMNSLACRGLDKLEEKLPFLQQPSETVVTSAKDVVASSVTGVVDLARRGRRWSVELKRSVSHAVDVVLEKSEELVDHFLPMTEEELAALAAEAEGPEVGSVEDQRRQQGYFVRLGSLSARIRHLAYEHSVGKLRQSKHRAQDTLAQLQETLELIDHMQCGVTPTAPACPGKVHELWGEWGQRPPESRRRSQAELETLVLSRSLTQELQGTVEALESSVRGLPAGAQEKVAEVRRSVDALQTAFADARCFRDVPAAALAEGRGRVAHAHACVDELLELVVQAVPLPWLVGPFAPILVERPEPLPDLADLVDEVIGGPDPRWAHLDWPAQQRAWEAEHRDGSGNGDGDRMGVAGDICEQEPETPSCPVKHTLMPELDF
Sequence (Q8WTS1 whole entry, looked up): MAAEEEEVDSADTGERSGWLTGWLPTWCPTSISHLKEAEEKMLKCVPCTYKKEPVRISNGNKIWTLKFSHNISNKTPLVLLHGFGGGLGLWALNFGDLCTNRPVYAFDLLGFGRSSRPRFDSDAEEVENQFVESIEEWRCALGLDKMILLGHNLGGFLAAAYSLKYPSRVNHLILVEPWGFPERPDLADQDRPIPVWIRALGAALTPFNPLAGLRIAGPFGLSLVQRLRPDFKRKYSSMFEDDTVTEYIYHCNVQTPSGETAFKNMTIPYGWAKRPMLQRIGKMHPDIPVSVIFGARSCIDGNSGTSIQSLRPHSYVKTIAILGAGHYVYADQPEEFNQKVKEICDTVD
methodSummary: ABHD5-PLIN5 interaction inhibitors, primary screen, cell lysate, split luciferase complementation, luminescence (AID 602281);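 further: 0% = DMSO only wells and the 100% control is not disclosed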
measurementParameters: Split G. princeps luciferase complementation, 4 h, at 4 µM
Out of some 360,000 compounds screened, about 2,900 (0.81%) were called active.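 How the source made its calls: active means inhibition above the mean inhibition across every tested compound plus 3 SD (cut at about 22% in these data); inactive means the rest.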 Shown is part of a subset that was picked to be rich in actives.
Thanks in advance; please answer with one of these: active, inactive

Solved cases (5 shown):
- COC(=O)Cc1ccc(OC(=O)C2CCN(S(=O)(=O)c3ccc(OC)c(OC)c3)CC2)cc1: inactive
- C[C@@H]1C[C@@H]2O[C@H]2/C=C\C=C\C(=O)Cc2c(Cl)c(O)cc(O)c2C(=O)O1: active
- CSc1nccc(NC(=O)c2ccc(C(C)(C)C)cc2)n1: inactive
- COc1cc(C(=O)NNC(=O)c2ccc(S(=O)(=O)N3CCCCC3)cc2)cc(OC)c1OC: inactive
- COc1cc(N2C(=O)c3ccccc3C2=O)c(Cl)cc1C(=O)OCC(=O)N1CCOCC1: inactive

Lookup: What classification did O=C(Nc1n[nH]c(C(F)(F)F)n1)c1cccs1 end up with in this test?
Found: inactive

Lookup: What classification did CCCC/C(C)=N/NC(=O)NC1CCCCC1 end up with in this test?
Found: inactive

###

measurementTarget: Perilipin-5 (Homo sapiens) + 1-acylglycerol-3-phosphate O-acyltransferase ABHD5 (Homo sapiens) (UniProt Q00G26+Q8WTS1)
methodSummary: ABHD5-PLIN5 interaction inhibitors, primary screen, cell lysate, split luciferase complementation, luminescence (AID 602281);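 further: 0% = DMSO only wells and the 100% control is not disclosed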
measurementParameters: Split G. princeps luciferase complementation, 4 h, at 4 µM
The whole screen tested about 360,000 compounds, of which about 2,900 (0.81%) were called active.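 The calls were made as follows: active = inhibition above the mean inhibition across every tested compound plus 3 SD (cut at about 22% in these data); inactive = the rest.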 This excerpt belongs to a sample that is enriched for actives.
Thanks in advance; please answer with one of these: active, inactive

Solved cases (6 shown):
- Cc1ccc(-n2nc(-c3ccco3)cc2C(=O)NCc2cccnc2)cc1: active
- CCN(CC(=O)Nc1ccc(Cl)c(S(=O)(=O)N(C)C)c1)Cc1nc2ccccc2c(=O)[nH]1: inactive
- C#CCOCCOCCOCCNc1nc(N2CCN(C(=O)CCCCCCCCCCNC(=O)Cn3cc(CCCCCN)nn3)CC2)nc(N2CCN(C(=O)CCCCCCCCCCNC(=O)[C@H](CO)n3cc(CCCSC)nn3)CC2)n1: active
- O=C(Cn1cnc2c(nnn2-c2ccccc2)c1=O)N1CCC(Cc2ccccc2)CC1: inactive
- CCc1ccccc1S(=O)(=O)Cc1ccc(C(=O)NCCc2ccccc2)o1: inactive
- Cc1nc2ccccn2c1C(=O)NN=C1CCN(C)CC1: inactive

Lookup: What classification did S=C(Nc1ccc(Br)cc1Cl)N1CCC2(CC1)OCCO2 end up with in this test?
Found: inactive

Lookup: What classification did Cc1[nH]c2ccccc2c1C(=O)C(C)Sc1nnc(C2CC2)o1 (stereo unspecified) end up with in this test?
Found: inactive

Lookup: What classification did Clc1cccc(Cc2c(-c3cccc(Cl)c3)nc3ccc(Cl)cn23)c1 end up with in this test?
Found: inactive

Lookup: What classification did COc1ccc(CN(C)Cc2nc3cc(OC)c(OC)cc3c(=O)[nH]2)c(OC)c1 end up with in this test?
Found: inactive

Lookup: What classification did CN(C)C(=O)c1ccc(NC(=O)c2ccccc2-c2ccccc2)cc1 end up with in this test?
Found: inactive

Lookup: What classification did Fc1ccc(Nc2nnns2)cc1 end up with in this test?
Found: inactive

Lookup: What classification did Cc1ccn2c(=O)nc(SCC(=O)NCc3ccc4c(c3)OCO4)nc2c1 end up with in this test?
Found: inactive

Lookup: What classification did Fc1cccc(Cc2c(-c3cccc(Cl)c3)nc3ccc(Br)cn23)c1 end up with in this test?
Found: inactive

Lookup: What classification did Cc1ccc(Cc2c(-c3ccccc3)nc3ccc(Cl)cn23)cc1 end up with in this test?
Found: inactive

Lookup: What classification did O=C(NNc1c2ccccc2nc2ccccc12)c1cc2ccccc2cc1O end up with in this test?
Found: active

Lookup: What classification did O=C(C1CCCO1)N1CCN(C(=O)C23CC4CC(CC(C4)C2)C3)CC1 (stereo unspecified) end up with in this test?
Found: inactive

Lookup: What classification did O=C(Cc1ccccn1)c1ccc(O)cc1O end up with in this test?
Found: inactive

Lookup: What classification did Cc1cc(O)ccc1-c1cc(C(=O)NCc2cc(C(F)(F)F)cc(C(F)(F)F)c2)[nH]n1 end up with in this test?
Found: inactive

Lookup: What classification did O=C(CSc1nc(C2CC2)nc2ccccc12)Nc1cccc(O)c1 end up with in this test?
Found: inactive

Lookup: What classification did Cc1ccc2nc(-c3ccco3)c(Cc3cccc(Cl)c3)n2c1 end up with in this test?
Found: active

###

measurementTarget: Perilipin-5 (Homo sapiens) + 1-acylglycerol-3-phosphate O-acyltransferase ABHD5 (Homo sapiens) (UniProt Q00G26+Q8WTS1)
methodSummary: ABHD5-PLIN5 interaction inhibitors, primary screen, cell lysate, split luciferase complementation, luminescence (AID 602281);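 further: 0% = DMSO only wells and the 100% control is not disclosed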
measurementParameters: Split G. princeps luciferase complementation, 4 h, at 4 µM
In all, about 360,000 compounds went through this assay and about 2,900 (0.81%) were called active.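 The calls were made as follows: active = inhibition above the mean inhibition across every tested compound plus 3 SD (cut at about 22% in these data); inactive = the rest.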 For the sample, actives were picked, then their nearest neighbours and some compounds at random.
Thanks in advance; please answer with one of these: Y = active, N = inactive

* Cc1ccc2[nH]c(=O)c(CC=C(Cl)Cl)c(C)c2c1 | N

Lookup: What classification did CC1CC(C)CN(S(=O)(=O)c2cccc3nonc23)C1 (stereo not given) end up with in this test?
Found: N

Lookup: What classification did COc1ccc(S(=O)(=O)N2CCCCC2)cc1NC(=O)C1CC(=O)N(c2ccc3c(c2)OCCO3)C1 (stereo not given) end up with in this test?
Found: N

Lookup: What classification did CCN1/C(=C\c2ccc3ccccc3[n+]2CC)Sc2cc(C)ccc21 end up with in this test?
Found: Y

Lookup: What classification did COc1ccc(C(=O)/C=C/c2cccnc2)c(OC)c1 end up with in this test?
Found: Y

Lookup: What classification did COCCN(CCOC)c1nc(N)c2c(N)nc3c(c2c1C#N)CC(=O)N3Cc1ccc(Cl)cc1 end up with in this test?
Found: Y

Lookup: What classification did CCO[C@H]1OC(C(=O)Nc2ccccc2)=C[C@@H](C2CC2)[C@@H]1CCCO end up with in this test?
Found: N

Lookup: What classification did Cc1ccc2c(c1)N(CC(=O)N1CCC(C)CC1)C(=O)c1cccnc1O2 end up with in this test?
Found: N

Lookup: What classification did CC[C@H](C)C(=O)N[C@H]1CCCN1C(=O)/C=C/c1ccccc1 end up with in this test?
Found: N

Lookup: What classification did COC(=O)c1ccccc1Oc1c(F)c(F)nc(N2CCOCC2)c1F end up with in this test?
Found: N

###

measurementTarget: Perilipin-5 (Homo sapiens) + 1-acylglycerol-3-phosphate O-acyltransferase ABHD5 (Homo sapiens) (UniProt Q00G26+Q8WTS1)
methodSummary: ABHD5-PLIN5 interaction inhibitors, primary screen, cell lysate, split luciferase complementation, luminescence (AID 602281);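 further: 0% = DMSO only wells and the 100% control is not disclosed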
measurementParameters: Split G. princeps luciferase complementation, 4 h, at 4 µM
Screen size: about 360,000 compounds; about 2,900 (0.81%) were called active.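 Rule for the calls: active = inhibition above the mean inhibition across every tested compound plus 3 SD (cut at about 22% in these data); inactive = the rest.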 Many of the other results were omitted from the sample, so actives are more common in it than they were.
Thanks in advance; please answer with one of these: active, inactive

Solved cases (5 shown):
• COc1ccc(N/C=C(\C2OC(=O)c3ccccc32)[N+](=O)[O-])cc1 (stereo not drawn) = active
• CC(C)(C)C(=O)N1CCC[C@@]1(CO)C(=O)O = inactive
• CCOC(=O)[C@]12CCCC=C1N(Cc1ccc3c(c1)OCO3)C(=O)[C@H](CC(=O)N1CCN(C(=O)c3ccco3)CC1)C2 = inactive
• CCc1ccc(N(CC(=O)NCc2cccnc2)S(=O)(=O)c2ccccc2)cc1 = inactive
• Cc1ccc2cc3cc(C(=O)N4CCCCCC4)oc3nc2c1 = inactive

Lookup: What classification did Cc1cccc(CS(=O)(=O)c2ncc(Cl)c(C(=O)Nc3ccc(F)cc3)n2)c1 end up with in this test?
Found: active

Lookup: What classification did CCCC(C(=O)OCCN(CC)CC)(c1ccccc1)c1ccccc1 end up with in this test?
Found: inactive

Lookup: What classification did COc1ccc(C(CNC(=O)COc2ccc([N+](=O)[O-])cc2)N2CCCCC2)cc1 (stereo not drawn) end up with in this test?
Found: inactive

Lookup: What classification did O=C(/C=C/c1ccc(Cl)cc1Cl)c1cccnc1 end up with in this test?
Found: active

Lookup: What classification did CCC(C(=O)OCCN(CC)CC)c1ccccc1 (stereo not drawn) end up with in this test?
Found: active

###

measurementTarget: Perilipin-5 (Homo sapiens) + 1-acylglycerol-3-phosphate O-acyltransferase ABHD5 (Homo sapiens) (UniProt Q00G26+Q8WTS1)
methodSummary: ABHD5-PLIN5 interaction inhibitors, primary screen, cell lysate, split luciferase complementation, luminescence (AID 602281);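 further: 0% = DMSO only wells and the 100% control is not disclosed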
measurementParameters: Split G. princeps luciferase complementation, 4 h, at 4 µM
Screen size: about 360,000 compounds; about 2,900 (0.81%) were called active.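 How the source made its calls: active means inhibition above the mean inhibition across every tested compound plus 3 SD (cut at about 22% in these data); inactive means the rest.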 The sample holds actives, similar compounds and a random draw of the others, so the mix is not that of the screen.
Thanks in advance; please answer with one of these: 1 for active, -1 for inactive

* c1ccc(CC2CCN(c3nc4ccccc4n4cnnc34)CC2)cc1 | -1
* COC(=O)c1ccc2nc(-c3ccc(C)cc3)c(Cc3ccc(OC)cc3C)n2c1 | -1

Lookup: What classification did COc1ccccc1CNS(=O)(=O)c1cc(C(=O)NCc2ccccn2)c(Cl)cc1Cl end up with in this test?
Found: -1

Lookup: What classification did COC(C[C@H](O)CC(=O)[C@@H](C)OCc1ccccc1)OC end up with in this test?
Found: -1

Lookup: What classification did Cc1noc(C)c1COc1ccccc1C(=O)N(C)CC(=O)Nc1cccc(F)c1 end up with in this test?
Found: -1
